Measured Activity, listed per entry.
target: Substance-P receptor (Cavia porcellus); test: In vitro inhibition of substance P (6-11) hexapeptide induced contractions of the guinea pig ileum at 5 uM.; assay type: tissue-based

compound	Activity / dose ratio
COC(=O)[C@H](CCSC)NC(=O)[C@H](CC(C)C)NC(=O)[C@@H](Cc1c[nH]c2ccccc12)NC(=O)[C@H](Cc1ccccc1)NC(=O)[C@@H](Cc1ccccc1)NC(=O)[C@H](CCCN=C(N)N)NC(=O)[C@H](CC(N)=O)NC(=O)C1CCCN1C(=O)[C@H](CCCCNC(=O)OCc1ccccc1)NC(=O)C1CCCN1C(=O)[C@H](CCCN=C(N)N)NC(=O)OCc1ccccc1 (stereo in doubt)	3.2
COC(=O)[C@H](CCSC)NC(=O)[C@H](CC(C)C)NC(=O)[C@@H](Cc1c[nH]c2ccccc12)NC(=O)[C@H](Cc1ccccc1)NC(=O)[C@@H](Cc1ccccc1)NC(=O)[C@H](CCCN=C(N)N)NC(=O)[C@H](CC(N)=O)NC(=O)OC(C)(C)C	16
COC(=O)[C@H](CCSC)NC(=O)[C@H](CC(C)C)NC(=O)[C@@H](Cc1c[nH]c2ccccc12)NC(=O)[C@H](Cc1ccccc1)NC(=O)[C@@H](Cc1ccccc1)NC(=O)[C@H](CCCN=C(N)N)NC(=O)[C@H](CC(N)=O)NC(=O)[C@@H]1CCCN1C(=O)[C@H](CCCCNC(=O)OCc1ccccc1)NC(=O)[C@@H]1CCCN1C(=O)[C@H](CCCN=C(N)N)NC(=O)OC(C)(C)C	5.1

---

target: Substance-P receptor (Cavia porcellus); experiment: In vitro inhibition of substance P induced contractions of the guinea pig ileum at 10 uM.; type: tissue-based
endpoint_label: Activity (dose ratio)

compound	target_or_system	endpoint_unit	modifier	measured_value
COC(=O)[C@@H](CCSC)NC(=O)[C@H](CC(C)C)SCCNC(=O)[C@@H](Cc1ccccc1)NC(=O)[C@H](Cc1ccccc1)NC(=O)[C@H](CCC(N)=O)NC(=O)[C@H](CCC(N)=O)NC(=O)[C@H]1CCCN1C(=O)[C@H](CCCCNC(=O)OCc1ccccc1)NC(=O)[C@H]1CCCN1C(=O)[C@H](CCCN=C(N)N)NC(=O)OCc1ccccc1	Substance-P receptor (Cavia porcellus)	dose ratio	=	15.2
COC(=O)[C@@H](CCSC)NC(=O)[C@H](CC(C)C)SCCNC(=O)[C@H](Cc1ccccc1)NC(=O)[C@@H](Cc1ccccc1)NC(=O)[C@H](CCCN=C(N)N)NC(=O)[C@H](CC(N)=O)NC(=O)C1CCCN1C(=O)[C@H](CCCCNC(=O)OCc1ccccc1)NC(=O)C1CCCN1C(=O)[C@H](CCCN=C(N)N)NC(=O)OCc1ccccc1 (stereo in doubt)	Substance-P receptor (Cavia porcellus)	dose ratio	=	20
COC(=O)[C@H](CCSC)NC(=O)[C@H](CC(C)C)NC(=O)[C@@H](Cc1c[nH]c2ccccc12)NC(=O)[C@H](Cc1ccccc1)NC(=O)[C@@H](Cc1ccccc1)NC(=O)[C@H](CCCCN)NC(=O)[C@H](CC(N)=O)NC(=O)C1CCCN1C(=O)[C@H](CCCCN)NC(=O)C1CCCN1C(=O)[C@@H](N)CCCN=C(N)N (stereo in doubt)	Substance-P receptor (Cavia porcellus)	dose ratio	<	2
COC(=O)C(CCSC)NC(=O)[C@H](CC(C)C)SCCNC(=O)[C@@H](Cc1ccccc1)NC(=O)[C@@H](Cc1ccccc1)NC(=O)[C@H](CCC(N)=O)NC(=O)[C@H](CCC(N)=O)NC(=O)[C@H]1CCCN1C(=O)[C@H](CCCCN)NC(=O)[C@H]1CCCN1C(=O)[C@@H](N)CCCN=C(N)N (stereo in doubt)	Substance-P receptor (Cavia porcellus)	dose ratio	=	3.6
